biological target: SHV-5 (Klebsiella pneumoniae); construct: made in house; host or cells: E. coli BL21(DE3); assay: β-lactamase enzyme inhibition, SHV-5; type: biochemical
TEST_READOUT: IC50

Reported IC50 ( "NCCN[C@H]1CC[C@@H](CC(=O)N[C@H]2Cc3cccc(C(=O)O)c3OB2O)CC1" ) = 100 to 1000 nM

Reported IC50 ( "NC[C@H]1CC[C@H](CC(=O)N[C@H]2Cc3cccc(C(=O)O)c3OB2O)CC1" ) = < 100 nM

Reported IC50 ( "CS(=O)(=O)NCCN[C@H]1CC[C@H](CC(=O)N[C@H]2Cc3cccc(C(=O)O)c3OB2O)CC1" ) = < 100 nM

Reported IC50 ( "N=CN[C@H]1CC[C@H](CC(=O)N[C@H]2Cc3cccc(C(=O)O)c3OB2O)CC1" ) = < 100 nM

Reported IC50 ( "O=C(C[C@H]1CC[C@H](NCc2nccs2)CC1)N[C@H]1Cc2cccc(C(=O)O)c2OB1O" ) = < 100 nM

Reported IC50 ( "NCCN[C@H]1CC[C@H](CC(=O)N[C@H]2Cc3cccc(C(=O)O)c3OB2O)CC1" ) = < 100 nM

Reported IC50 ( "O=C(C[C@H]1CC[C@H](NCCNc2ccccn2)CC1)N[C@H]1Cc2cccc(C(=O)O)c2OB1O" ) = < 100 nM

Reported IC50 ( CNCCN[C@H]1CC[C@H](C(CO)C(=O)N[C@H]2Cc3cccc(C(=O)O)c3OB2O)CC1 (stereo partly shown) ) = < 100 nM

Reported IC50 ( "CN(C)CC(=O)NC[C@H]1CC[C@H](CC(=O)N[C@H]2Cc3cccc(C(=O)O)c3OB2O)CC1" ) = < 100 nM

Reported IC50 ( "NCCN[C@H]1CC[C@H](CC(=O)N[C@@H]2Cc3cccc(C(=O)O)c3OB2O)CC1" ) = 100 to 1000 nM

Reported IC50 ( "CSCCN[C@H]1CC[C@H](CC(=O)N[C@H]2Cc3cccc(C(=O)O)c3OB2O)CC1" ) = < 100 nM

Reported IC50 ( "O=C(C[C@H]1CC[C@H](NCCNCCO)CC1)N[C@H]1Cc2cccc(C(=O)O)c2OB1O" ) = < 100 nM

Reported IC50 ( "N=C(N)NCCN[C@H]1CC[C@H](CC(=O)N[C@H]2Cc3cccc(C(=O)O)c3OB2O)CC1" ) = < 100 nM

Reported IC50 ( "O=C(C[C@H]1CC[C@@H](N2CCNCC2)CC1)N[C@H]1Cc2cccc(C(=O)O)c2OB1O" ) = 100 to 1000 nM

Reported IC50 ( "NC[C@H](N)C(=O)N[C@H]1CC[C@H](CC(=O)N[C@H]2Cc3cccc(C(=O)O)c3OB2O)CC1" ) = < 100 nM

Reported IC50 ( NCC(N)[C@H]1CC[C@H](CC(=O)N[C@H]2Cc3cccc(C(=O)O)c3OB2O)CC1 (stereo partly shown) ) = < 100 nM

Reported IC50 ( "O=C(C[C@H]1CC[C@H](NCCNC2CCCC2)CC1)N[C@H]1Cc2cccc(C(=O)O)c2OB1O" ) = < 100 nM

Reported IC50 ( "NCCCN[C@H]1CC[C@H](CC(=O)N[C@H]2Cc3cccc(C(=O)O)c3OB2O)CC1" ) = < 100 nM

Reported IC50 ( "O=C(CC1CCCCC1)N[C@H]1Cc2cccc(C(=O)O)c2OB1O" ) = < 100 nM

Reported IC50 ( "CN(C)C[C@H]1CC[C@H](CC(=O)N(C)[C@H]2Cc3cccc(C(=O)O)c3OB2O)CC1" ) = < 100 nM

Reported IC50 ( NC1CCC(O)(CC(=O)N[C@H]2Cc3cccc(C(=O)O)c3OB2O)CC1 (stereo partly shown) ) = 100 to 1000 nM

Reported IC50 ( "N[C@@H](CO)CN[C@H]1CC[C@H](CC(=O)N[C@H]2Cc3cccc(C(=O)O)c3OB2O)CC1" ) = < 100 nM

Reported IC50 ( NCCNC1CC(CC(=O)N[C@H]2Cc3cccc(C(=O)O)c3OB2O)C1 (stereo partly shown) ) = < 100 nM

Reported IC50 ( "NCCNC(=O)N[C@H]1CC[C@H](CC(=O)N[C@H]2Cc3cccc(C(=O)O)c3OB2O)CC1" ) = < 100 nM

Reported IC50 ( NCC1CCC(CC(=O)N[C@H]2Cc3cccc(C(=O)O)c3OB2O)(C[N+](=O)[O-])CC1 (stereo partly shown) ) = 100 to 1000 nM

Reported IC50 ( "CCNCCN[C@H]1CC[C@H](CC(=O)N[C@H]2Cc3cccc(C(=O)O)c3OB2O)CC1" ) = < 100 nM

Reported IC50 ( "N=C(N)N1CCC(CN[C@H]2CC[C@H](CC(=O)N[C@H]3Cc4cccc(C(=O)O)c4OB3O)CC2)CC1" ) = < 100 nM

Reported IC50 ( "O=C(C[C@H]1CC[C@H](N2CCNCC2)CC1)N[C@H]1Cc2cccc(C(=O)O)c2OB1O" ) = < 100 nM

Reported IC50 ( "O=C(C[C@H]1CC[C@H](NCc2cccnc2)CC1)N[C@H]1Cc2cccc(C(=O)O)c2OB1O" ) = < 100 nM

Reported IC50 ( O=C(CC1CCC(N2CCOCC2)CC1)N[C@H]1Cc2cccc(C(=O)O)c2OB1O (stereo partly shown) ) = 100 to 1000 nM

Reported IC50 ( "CC(C)NCCN[C@H]1CC[C@H](CC(=O)N[C@H]2Cc3cccc(C(=O)O)c3OB2O)CC1" ) = < 100 nM

---

target: SHV-5 (Klebsiella pneumoniae, UniProt P0A3M1); construct: made in house; host or cells: E. coli BL21(DE3); experiment: β-lactamase enzyme inhibition, SHV-5; type: biochemical
I'd be grateful if you could share measured IC50 for these entries.

Reported IC50 ( "N[C@H]1CC[C@@H](CC(=O)N[C@H]2Cc3cccc(C(=O)O)c3OB2O)CC1" ) = < 100 nM

Reported IC50 ( "O=C(C[C@H]1CC[C@H](NCc2ccccn2)CC1)N[C@H]1Cc2cccc(C(=O)O)c2OB1O" ) = < 100 nM

Reported IC50 ( "N[C@H]1CC[C@H](NCC(=O)N[C@H]2Cc3cccc(C(=O)O)c3OB2O)CC1" ) = < 100 nM

Reported IC50 ( NCC1CCC(=CC(=O)N[C@H]2Cc3cccc(C(=O)O)c3OB2O)CC1 (some centres unmarked) ) = 100 to 1000 nM

Reported IC50 ( "O=C(C[C@H]1CC[C@H](NCC2CCNCC2)CC1)N[C@H]1Cc2cccc(C(=O)O)c2OB1O" ) = < 100 nM

Reported IC50 ( "N=C(N)N[C@H]1CC[C@H](CCC(=O)N[C@H]2Cc3cccc(C(=O)O)c3OB2O)CC1" ) = < 100 nM

Reported IC50 ( "CN1CCN([C@H]2CC[C@H](CC(=O)N[C@H]3Cc4cccc(C(=O)O)c4OB3O)CC2)C1=N" ) = < 100 nM

Reported IC50 ( "N[C@H]1CC[C@H](C(=O)N[C@H]2Cc3cccc(C(=O)O)c3OB2O)CC1" ) = 10000 to 100000 nM

---

molecular target: OXA-1 (Escherichia coli); experiment: β-lactamase enzyme inhibition, OXA-1; conditions: substrate Nitrocefin 100 μM, 486 nm; read-out: Class D OXA-1 IC50
TEST_READOUT: IC50

// IC50 (OXA-1 (Escherichia coli)) for CN(C)CC(=O)NC[C@H]1CC[C@H](CC(=O)N[C@H]2Cc3cccc(C(=O)O)c3OB2O)CC1 [Example 5] = < 100 nM

// IC50 (OXA-1 (Escherichia coli)) for N[C@H]1CC(CC(=O)N[C@H]2Cc3cccc(C(=O)O)c3OB2O)C[C@@H]1N [Example 37] = < 100 nM

// IC50 (OXA-1 (Escherichia coli)) for CN(C)CCN[C@H]1CC[C@H](CC(=O)N[C@H]2Cc3cccc(C(=O)O)c3OB2O)CC1 [Example 79] = < 100 nM

// IC50 (OXA-1 (Escherichia coli)) for N[C@H]1CC[C@H](C(=O)N[C@H]2Cc3cccc(C(=O)O)c3OB2O)CC1 [Example 2] = 100 to 1000 nM
